molecular target: T1, HLA-A*0201 molecule on human T2 cells (human); test: T2 cells expressing HLA-A*0201, anti-HLA-A2-PE, FACS
T1 construct: read out with anti-HLA-A2 antibody BB7.2-PE; also called HLA-A2
Measured attribute: mean relative fluorescence intensity at 1.5625 µM peptide

{"Binder": "FMLGEFLKL [BIRC5-B1]", "Observed measurement": "1.9 % of HIV peptide"}
{"Binder": "FLDSLGFST [TYMS-H2]", "Observed measurement": "1.6 % of HIV peptide"}
{"Binder": "FMVEDETVL (Fragment of human EZH2) [EZH2-H]", "Observed measurement": "0 % of HIV peptide"}
{"Binder": "LTLGEFLKL [BIRC5-H]", "Observed measurement": "1.7 % of HIV peptide"}
{"Binder": "ILDEAYVRV [EGFR-B]", "Observed measurement": "12.7 % of HIV peptide"}

Source: patent US20210113678A1
